# Experimental Context: human
Give measured Hepatotoxicity (severe hepatitis) for each item. Keep answers brief.

For the molecule COc1cc(NS(=O)(=O)c2ccc(N)cc2)nc(OC)n1 [SULFADIMETHOXINE] , what Hepatotoxicity (severe hepatitis) is on record?
0

For the molecule CCC1(c2ccc(N)cc2)CCC(=O)NC1=O (centres undefined) [AMINOGLUTETHIMIDE] , what Hepatotoxicity (severe hepatitis) is on record?
0

For the molecule Cc1cccc(N2CC(CO)OC2=O)c1 (centres undefined) [TOLOXATONE] , what Hepatotoxicity (severe hepatitis) is on record?
1

For the molecule CC1=C(/C=C/C(C)=C/C=C/C(C)=C\C(=O)O)C(C)(C)CCC1 [ISOTRETINOIN] , what Hepatotoxicity (severe hepatitis) is on record?
0

---

# Test: Highest frequency of acute liver toxicity observed during clinical trials, expressed as a percentage. [column '% AIGUE' in source]
# Experimental Context: human, Liver
Recorded Metric: Hepatotoxicity (acute) (%)
The reply should be a number in %, with the unit left off.

For the molecule O=C1C(CC[S+]([O-])c2ccccc2)C(=O)N(c2ccccc2)N1c1ccccc1 (stereo not drawn) , what Hepatotoxicity (acute) is on record?
0

For the molecule O=C(OCC(O)CO)c1ccccc1Nc1ccnc2cc(Cl)ccc12 (stereo not drawn) , what Hepatotoxicity (acute) is on record?
0

For the molecule "Nc1nc(-c2ccccc2)c(Br)c(=O)[nH]1" , what Hepatotoxicity (acute) is on record?
0

For the molecule "C[C@H]1[C@H](NC(=O)/C(=N\OC(C)(C)C(=O)O)c2csc(N)n2)C(=O)N1S(=O)(=O)O" , what Hepatotoxicity (acute) is on record?
0

For the molecule CC(C)(C)NCC(O)c1ccc(O)c(CO)c1 (stereo not drawn) , what Hepatotoxicity (acute) is on record?
4

For the molecule CC1Cc2ccccc2N1NC(=O)c1ccc(Cl)c(S(N)(=O)=O)c1 (stereo not drawn) [INDAPAMIDE] , what Hepatotoxicity (acute) is on record?
0

For the molecule CCOc1ccccc1OCC1CNCCO1 (stereo not drawn) , what Hepatotoxicity (acute) is on record?
0

For the molecule "CC1=C(C(=O)O)N2C(=O)[C@@H](NC(=O)[C@H](N)c3ccc(O)cc3)[C@H]2SC1" , what Hepatotoxicity (acute) is on record?
0

For the molecule "Nc1ccc(S(=O)(=O)Nc2ncccn2)cc1" , what Hepatotoxicity (acute) is on record?
0

For the molecule "Cc1ccc(C(=O)c2cc(O)c(O)c([N+](=O)[O-])c2)cc1" , what Hepatotoxicity (acute) is on record?
0.7

For the molecule "CC(=O)O[C@H]1C(=O)[C@@]2(C)[C@H]([C@H](OC(=O)c3ccccc3)[C@]3(O)C[C@H](OC(=O)[C@H](O)[C@@H](NC(=O)c4ccccc4)c4ccccc4)C(C)=C1C3(C)C)[C@]1(OC(C)=O)CO[C@@H]1C[C@@H]2O" , what Hepatotoxicity (acute) is on record?
6

For the molecule CN(C)CCC(c1ccc(Cl)cc1)c1ccccn1.O=C(O)/C=C\C(=O)O (stereo not drawn) [CHLORPHENIRAMINE MALEATE] , what Hepatotoxicity (acute) is on record?
0

For the molecule "Cc1ncc(CO)c(CO)c1O" , what Hepatotoxicity (acute) is on record?
0

---

# Test: Times to onset, minimal and maximal, observed in the indexed observations. [column 'DELAI' in source]
# Experimental Context: human
Recorded Metric: Hepatotoxicity (time to onset)

For the compound O=C1c2ccccc2C(=O)C1c1ccccc1 [PHENINDIONE] , what Hepatotoxicity (time to onset) is on record?
1 week - 2 months

For the compound CC(=O)N[C@@H](CS)C(=O)O [ACETYLCYSTEINE] , what Hepatotoxicity (time to onset) is on record?
4 days

For the compound C[C@]12CCC(=O)C=C1CC[C@@H]1[C@@H]2[C@@H](O)C[C@@]2(C)[C@H]1CC[C@]2(O)C(=O)CO [HYDROCORTISONE] , what Hepatotoxicity (time to onset) is on record?
2 months

For the compound O=c1[nH]c(=O)n([C@H]2C[C@H](O)[C@@H](CO)O2)cc1I [IDOXURIDINE] , what Hepatotoxicity (time to onset) is on record?
1 week - 2 weeks

For the compound CO[C@@]1(NC(=O)CSC[C@@H](N)C(=O)O)C(=O)N2C(C(=O)O)=C(CSc3nnnn3C)CS[C@@H]21 [CEFMINOX] , what Hepatotoxicity (time to onset) is on record?
9 days

For the compound COC(=O)[C@H]1[C@H]2C[C@@H]3c4[nH]c5cc(OC)ccc5c4CCN3C[C@H]2C[C@@H](OC(=O)c2cc(OC)c(OC)c(OC)c2)[C@@H]1OC [RESERPINE] , what Hepatotoxicity (time to onset) is on record?
1 year

For the compound CN(C)/N=N/c1[nH]cnc1C(N)=O [DACARBAZINE] , what Hepatotoxicity (time to onset) is on record?
1 cure - 4 cures

For the compound CCOC(=O)Nc1ccc2c(c1)N(C(=O)CCN1CCOCC1)c1ccccc1S2 [MORICIZINE] , what Hepatotoxicity (time to onset) is on record?
6 days
